Recorded values, source ChEMBL document CHEMBL1131058.

- Assay remarks: Selectivity ratio for binding affinity towards alpha2 and alpha-1 adrenoceptors
Reported Ratio maps to class as: low = under 400, moderate = from 400 up to 1000, high = 1000 and over

>  <Compound>
COc1ccccc1N1CCN(CCn2c(=O)[nH]c3ccccc3c2=O)CC1

>  <Classification>
high

$$$$
>  <Compound>
COc1ccccc1N1CCN(C[C@@H]2CN=C3c4ccccc4N=C(SC)N32)CC1

>  <Classification>
low

$$$$
>  <Compound>
COc1ccccc1N1CCN(Cc2cnc3c4ccccc4nc(O)n23)CC1

>  <Classification>
high

$$$$
>  <Compound>
COc1ccccc1N1CCN(C[C@H]2CN=C3c4ccccc4NC(=O)N32)CC1

>  <Classification>
high

$$$$
>  <Compound>
Oc1nc2ccccc2c2ncc(CN3CCN(c4ccccc4Cl)CC3)n12

>  <Classification>
low

$$$$
>  <Compound>
COc1ccccc1N1CCN(Cc2cn3c(=O)n(C)c4ccccc4c3n2)CC1

>  <Classification>
moderate

$$$$
>  <Compound>
COc1ccccc1N1CCN(CC2CN=C3Nc4ccccc4S(=O)(=O)N32)CC1 (stereo not given)

>  <Classification>
low

$$$$
>  <Compound>
COc1ccccc1N1CCN(Cc2cnc3c4ccccc4n(C)c(=O)n23)CC1

>  <Classification>
moderate

$$$$
>  <Compound>
Oc1nc2ccccc2c2nc(CN3CCN(c4ccccc4Cl)CC3)cn12

>  <Classification>
moderate

$$$$

====

- Target or system: Adrenergic receptor alpha-1 (Rattus norvegicus, UniProt P15823+P23944+P43140)
- Assay remarks: Binding affinity towards Alpha-1 adrenergic receptor measured by displacement of [3H]prazosin from rat brain cortex membranes
- Format: cell membranes, Membrane
Reported log10 Ki is given for each of the following compounds.
Measurement label: log10 Ki (log10 of the value in µM)

>  <Compound>
Cn1c(=O)n2c(CN3CCN(c4ccccc4Cl)CC3)cnc2c2ccccc21

>  <log10 Ki>
-2.37

$$$$
>  <Compound>
Cn1c(=O)n2cc(CN3CCN(c4ccccc4Cl)CC3)nc2c2ccccc21

>  <log10 Ki>
-1.85

$$$$
>  <Compound>
COc1ccccc1N1CCN(Cc2cn3c(=O)n(C)c4ccccc4c3n2)CC1

>  <log10 Ki>
-2.19

$$$$
>  <Compound>
O=S1(=O)c2ccccc2NC2=NCC(CN3CCN(c4ccccc4Cl)CC3)N21 (stereo not drawn)

>  <log10 Ki>
-1.93

$$$$
>  <Compound>
COc1ccccc1N1CCN(CC2CN=C3Nc4ccccc4S(=O)(=O)N32)CC1 (stereo not drawn)

>  <log10 Ki>
-2.31

$$$$
>  <Compound>
COc1ccccc1N1CCN(Cc2cnc3c4ccccc4nc(O)n23)CC1

>  <log10 Ki>
-2.30

$$$$
>  <Compound>
COc1ccccc1N1CCN(Cc2cn3c(O)nc4ccccc4c3n2)CC1

>  <log10 Ki>
-2.19

$$$$
>  <Compound>
COc1ccccc1N1CCN(Cc2cnc3c4ccccc4n(C)c(=O)n23)CC1

>  <log10 Ki>
-2.21

$$$$
>  <Compound>
COc1ccccc1N1CCN(CC2CN=C3Nc4ccccc4C(=O)N32)CC1 (stereo not drawn)

>  <log10 Ki>
-0.73

$$$$
>  <Compound>
Oc1nc2ccccc2c2nc(CN3CCN(c4ccccc4Cl)CC3)cn12

>  <log10 Ki>
-2.03

$$$$
